Recorded measurements of protein stability index, one per entry
B1: HESX1 (parent)
chain: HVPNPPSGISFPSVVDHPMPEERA

- Variants of: B1
- Protocol Summary: protein stability index of a GFP-peptide fusion (GPS, HEK-293T) (PSI 1-6); higher = more stable;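 also: lentivirally expressed fusions sorted by FACS into six bins by GFP to DsRed ratio, PSI derived from sequencing read proportions per bin multiplied by bin number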
- Condition Description: c terminus: a fixed tail appended
Property Name: protein stability index

- Mutant Code: "P6L"
  Property Name: "protein stability index"
  Endpoint Result: 2.62
- Mutant Code: "N4L"
  Property Name: "protein stability index"
  Endpoint Result: 4.27
- Mutant Code: "V2F"
  Property Name: "protein stability index"
  Endpoint Result: 4.78
- Mutant Code: "A24D"
  Property Name: "protein stability index"
  Endpoint Result: 2.77
- Mutant Code: "P6D"
  Property Name: "protein stability index"
  Endpoint Result: 2.56
- Mutant Code: "S13T"
  Property Name: "protein stability index"
  Endpoint Result: 2.45
- Mutant Code: "P18V"
  Property Name: "protein stability index"
  Endpoint Result: 2.64
- Mutant Code: "S13V"
  Property Name: "protein stability index"
  Endpoint Result: 2.43
- Mutant Code: "F11A"
  Property Name: "protein stability index"
  Endpoint Result: 5
- Mutant Code: "H17W"
  Property Name: "protein stability index"
  Endpoint Result: 2.19
- Mutant Code: "P20A"
  Property Name: "protein stability index"
  Endpoint Result: 2.74
- Mutant Code: "H1C"
  Property Name: "protein stability index"
  Endpoint Result: 4.48
- Mutant Code: "P20F"
  Property Name: "protein stability index"
  Endpoint Result: 2.21
- Mutant Code: "V14N"
  Property Name: "protein stability index"
  Endpoint Result: 4.43
- Mutant Code: "P5T"
  Property Name: "protein stability index"
  Endpoint Result: 2.74
- Mutant Code: "H17D"
  Property Name: "protein stability index"
  Endpoint Result: 3.28
- Mutant Code: "H1Y"
  Property Name: "protein stability index"
  Endpoint Result: 2.25
- Mutant Code: "P6I"
  Property Name: "protein stability index"
  Endpoint Result: 2.24
- Mutant Code: "M19Y"
  Property Name: "protein stability index"
  Endpoint Result: 2.27
- Mutant Code: "V15F"
  Property Name: "protein stability index"
  Endpoint Result: 3.28
- Mutant Code: "H1K"
  Property Name: "protein stability index"
  Endpoint Result: 4.82
- Mutant Code: "D16M"
  Property Name: "protein stability index"
  Endpoint Result: 2.19
- Mutant Code: "M19I"
  Property Name: "protein stability index"
  Endpoint Result: 2.59
- Mutant Code: "P5C"
  Property Name: "protein stability index"
  Endpoint Result: 2.45
- Mutant Code: "R23Y"
  Property Name: "protein stability index"
  Endpoint Result: 2.34
- Mutant Code: "G8M"
  Property Name: "protein stability index"
  Endpoint Result: 2.59
- Mutant Code: "V15T"
  Property Name: "protein stability index"
  Endpoint Result: 3.13
- Mutant Code: "P18Y"
  Property Name: "protein stability index"
  Endpoint Result: 2.48
- Mutant Code: "N4Q"
  Property Name: "protein stability index"
  Endpoint Result: 3.45
- Mutant Code: "V14L"
  Property Name: "protein stability index"
  Endpoint Result: 3.9
- Mutant Code: "S13G"
  Property Name: "protein stability index"
  Endpoint Result: 2.81
- Mutant Code: "V2D"
  Property Name: "protein stability index"
  Endpoint Result: 5.52
- Mutant Code: "V2Y"
  Property Name: "protein stability index"
  Endpoint Result: 5.18
- Mutant Code: "M19L"
  Property Name: "protein stability index"
  Endpoint Result: 2.39
- Mutant Code: "V15K"
  Property Name: "protein stability index"
  Endpoint Result: 3.2
- Mutant Code: "S13R"
  Property Name: "protein stability index"
  Endpoint Result: 2.59
- Mutant Code: "P6K"
  Property Name: "protein stability index"
  Endpoint Result: 1.78
- Mutant Code: "V14G"
  Property Name: "protein stability index"
  Endpoint Result: 4.21
- Mutant Code: "N4E"
  Property Name: "protein stability index"
  Endpoint Result: 3.8
- Mutant Code: "P12W"
  Property Name: "protein stability index"
  Endpoint Result: 3.85
- Mutant Code: "V14K"
  Property Name: "protein stability index"
  Endpoint Result: 3.45
- Mutant Code: "P12K"
  Property Name: "protein stability index"
  Endpoint Result: 3.83
- Mutant Code: "V14W"
  Property Name: "protein stability index"
  Endpoint Result: 3.59
- Mutant Code: "H17Q"
  Property Name: "protein stability index"
  Endpoint Result: 2.68
- Mutant Code: "R23T"
  Property Name: "protein stability index"
  Endpoint Result: 2.6
- Mutant Code: "S10G"
  Property Name: "protein stability index"
  Endpoint Result: 2.25
